Test system: SiHa (cervical carcinoma)
Assay: Antiproliferative MTT assay, SiHa
Type: cell-based
Details: Homo sapiens, 48 h, read-out: IC50 SiHa
Experimental: Human cancer cell lines—prostatic adenocarcinoma (PC-3, ATCC CRL-7934), lung adenocarcinoma (A549, ATCC CCL-185), and cervical carcinoma (SiHa, ATCC HTB-35)—along with normal mouse fibroblasts (L929, ATCC CRL-6364) were cultured as monolayers in Dulbecco’s Modified Eagle Medium (DMEM) supplemented with 10% (v/v) fetal bovine serum (FBS), 1% (v/v) penicillin, and 1% (v/v) streptomycin. These cultures were maintained at 37 °C in a humidified atmosphere with 5% CO2. […]
ENDPOINT: pIC50
The value called pIC50 is obtained by taking minus log10 of the concentration in mol/L.

### Prompt Would you mind telling me what pIC50 value was observed for COc1cc([C@@H]2c3cc4c(cc3[C@H](O)[C@H]3COC(=O)[C@H]23)OCO4)cc(OC)c1OC [ppt, podophyllotoxin, reference compound] ?
### Response 5.73

====

Test system: SiHa (cervical carcinoma)
Experiment: Antiproliferative MTT assay, SiHa
Assay type: cell-based
Settings: Homo sapiens, 48 h, read-out: IC50 SiHa, pure compounds, 48 h treatment, MTT
ENDPOINT: IC50 (µM)
Note: unit µM is implicit; provide only the numeric part.

### Prompt # lookup: IC50 of COc1cc(-c2c3c(c(OC)c4cc5c(cc24)OCO5)C(OC(C)=O)OC3=O)cc2c1OCO2 (single isomer, unassigned; (+)) [Compound 6]
### Response 3.62
